Test system: NCI-H69 cell line
test_summary: Cell viability assay for NCI-H69 cell line (EZ-Cytox)
Type: cell-based
test_settings: Homo sapiens, NCI-H69, 120 h; H69 cells, 5 days, 3000 nM to 0.46 nM
pIC50: −log10 of the molar value.
property_label: pIC50

compound | pIC50
COc1cc(C(=O)NN2CCC(CCN3CCN(c4cc(OC)c(NC5CCC(=O)NC5=O)cc4F)CC3)CC2)ncc1Nc1ncc2c(n1)N(C1CCCC1)CC(F)(F)C(=O)N2C (stereo not drawn) | > 7.30
CCN1CC(F)(F)C(=O)N(C)c2cnc(Nc3ccc(C(=O)NC4CC5(CCN(CC6CCN(c7ccc(C8CCC(=O)NC8=O)cc7F)CC6)CC5)C4)cc3OC)nc21 (stereo not drawn) | > 7.52

Exercise: Identify the measured pIC50 of COc1cc(C(=O)NC2CC3(CCN(CC4CCN(c5cnc(C6CCC(=O)NC6=O)cc5C)CC4)CC3)C2)ccc1Nc1ncc2c(n1)N(C(C)C)CC(F)(F)C(=O)N2C (stereo not drawn) for NCI-H69 cell line.
Solution: > 7.52

Exercise: Identify the measured pIC50 of COc1cc(C(=O)NC2CC3(CCN(CC4CCN(c5ccc(C6CCC(=O)NC6=O)nc5C)CC4)CC3)C2)ccc1Nc1ncc2c(n1)N(C1CCCC1)CC(F)(F)C(=O)N2C (stereo not drawn) for NCI-H69 cell line.
Solution: > 7.52

Exercise: Identify the measured pIC50 of COc1cc(C(=O)N[C@H]2C3CN(CC4CCN(c5ccc(NC6CCC(=O)NC6=O)cc5)CC4)C[C@@H]32)ccc1Nc1ncc2c(n1)N(C(C)C)CC(F)(F)C(=O)N2C (stereo partly drawn) for NCI-H69 cell line.
Solution: > 7.30
